- Tgt: human CB1 receptor (Homo sapiens, UniProt P21554)
- Construct: purchased Perkin-Elmer Life Sciences, Inc. Lot #1929; host or cells: HEK293 (HEK293 EBNA according to b236 for compounds 33-36)
- Sequence (P21554 whole entry): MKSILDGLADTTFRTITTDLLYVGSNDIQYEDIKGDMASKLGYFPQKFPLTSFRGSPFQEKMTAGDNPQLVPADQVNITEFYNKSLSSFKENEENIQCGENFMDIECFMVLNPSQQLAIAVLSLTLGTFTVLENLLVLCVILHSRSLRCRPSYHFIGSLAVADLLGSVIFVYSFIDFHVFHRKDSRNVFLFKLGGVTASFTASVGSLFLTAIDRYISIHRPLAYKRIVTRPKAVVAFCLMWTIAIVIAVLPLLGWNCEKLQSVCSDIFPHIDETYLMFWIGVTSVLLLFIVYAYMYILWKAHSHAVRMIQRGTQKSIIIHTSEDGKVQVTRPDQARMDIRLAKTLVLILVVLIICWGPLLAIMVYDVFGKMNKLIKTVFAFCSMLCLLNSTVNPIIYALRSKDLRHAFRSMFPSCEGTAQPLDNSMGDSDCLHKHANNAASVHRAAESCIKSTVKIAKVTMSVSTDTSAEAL
- Protocol text: biochemical
- Assay type: binding
- Assay conditions: Table 1; affinity ratio of Ki values
Criterion: Ratio CB1/CB2 strictly under 1. Met: Y. Not met: N.

-- ask Report whether reported Ratio CB1/CB2 is lower than 1 (strictly) for CC1=CCC2C(C1)c1c(O)cc(C(C)(C)C3CCCCC3)cc1OC2(C)C (centres unmarked)
-- reply Y

-- ask Report whether reported Ratio CB1/CB2 is lower than 1 (strictly) for CC1=CCC2C(C1)c1c(O)cc(C3(C4CCCCCC4)SCCS3)cc1OC2(C)C (centres unmarked)
-- reply Y

###

# pKi per record follows
- Tgt: human CB1 receptor (Homo sapiens, UniProt P21554)
- Construct: purchased Perkin-Elmer Life Sciences, Inc. Lot #1929; host or cells: HEK293 (HEK293 EBNA according to b236 for compounds 33-36)
- Protocol text: biochemical
- Format: binding
- Assay conditions: Table 3; human receptor in HEK293 EBNA cell membranes; three experiments in duplicate, SEM in parentheses; read-out: CB1 Ki
Lab note — pKi values are minus log10 of concentrations in M.

Please fill in: pKi reported for CC1=CCC2C(C1)c1c(O)cc(C3(c4ccccc4)SCCS3)cc1OC2(C)C (stereo not drawn) = 7.76

Please fill in: pKi reported for "CC1=CC[C@@H]2[C@@H](C1)c1c(O)cc(C(=O)c3ccccc3)cc1OC2(C)C" = 6.53

Please fill in: pKi reported for CC1=CCC2C(C1)c1c(O)cc(Cc3ccccc3)cc1OC2(C)C (stereo not drawn) = 7.17

###

- Tgt: human CB1 receptor (Homo sapiens)
- Construct: purchased Perkin-Elmer Life Sciences, Inc. Lot #1929; host or cells: HEK293 (HEK293 EBNA according to b236 for compounds 33-36)
- Protocol text: biochemical
- Assay type: binding
- Assay conditions: Table 1; membranes of HEK293 cells with human CB1; SEM in parentheses, n≧2 in triplicate; read-out: CB1 Ki
Measure: log10 Ki (log10 of the value in nM)
// units: nM (pre-log); metric: Ki; scale: log10

* CC1=CCC2C(C1)c1c(O)cc(C3(C4CCCC4)SCCS3)cc1OC2(C)C (stereo not drawn) | 0.98

// returns log10 Ki for CCCCC1(c2cc(O)c3c(c2)OC(C)(C)C2CC=C(C)CC32)SCCS1 (stereo not drawn) with human CB1 receptor (Homo sapiens); value = -0.07

// returns log10 Ki for CC1=CCC2C(C1)c1c(O)cc(C3(C4CCCCC4)SCCS3)cc1OC2(C)C (stereo not drawn) with human CB1 receptor (Homo sapiens); value = 0.27

// returns log10 Ki for CC1=CCC2C(C1)c1c(O)cc(C(C)(C)C3CCCCCC3)cc1OC2(C)C (stereo not drawn) with human CB1 receptor (Homo sapiens); value = -0.03

// returns log10 Ki for CC1=CCC2C(C1)c1c(O)cc(C3(C4CCCCCC4)SCCS3)cc1OC2(C)C (stereo not drawn) with human CB1 receptor (Homo sapiens); value = 0.25

// returns log10 Ki for CC1=CCC2C(C1)c1c(O)cc(C(C)(C)C3CCCCC3)cc1OC2(C)C (stereo not drawn) with human CB1 receptor (Homo sapiens); value = -0.24

###

- Tgt: human CB1 receptor (Homo sapiens, UniProt P21554)
- Construct: purchased Perkin-Elmer Life Sciences, Inc. Lot #1929; host or cells: HEK293 (HEK293 EBNA according to b236 for compounds 33-36)
- Protocol text: biochemical
- Assay type: binding
Measure: Ki (nM)
// note: answer is a bare numeric in nM

Please fill in: Ki reported for CC1=CCC2C(C1)c1c(O)cc(C(C)(C)c3cccs3)cc1OC2(C)C (stereo not shown) [Compound 55] = 1.08

###

- Tgt: human CB2 receptor (Homo sapiens, UniProt P34972)
- Construct: purchased Perkin-Elmer Life Sciences, Inc. Lot #1930
- Sequence (P34972 whole entry): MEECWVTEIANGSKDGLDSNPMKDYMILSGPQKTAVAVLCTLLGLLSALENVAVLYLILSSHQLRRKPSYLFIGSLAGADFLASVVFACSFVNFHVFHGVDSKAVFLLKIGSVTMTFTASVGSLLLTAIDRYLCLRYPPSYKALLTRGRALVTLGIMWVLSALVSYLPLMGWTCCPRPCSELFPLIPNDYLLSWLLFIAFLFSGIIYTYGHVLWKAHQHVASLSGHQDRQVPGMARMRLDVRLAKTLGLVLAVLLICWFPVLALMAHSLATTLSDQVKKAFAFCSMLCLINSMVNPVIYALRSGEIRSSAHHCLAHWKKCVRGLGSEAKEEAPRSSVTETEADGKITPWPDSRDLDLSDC
- Protocol text: CB2 receptor binding assay, displacement of [3H]CP 55,940
pKi: −log10 of the molar value.
Please note: Satisfied applies when pKi is 9 or greater, and Not satisfied applies otherwise.

* CC1=CCC2C(C1)c1c(O)cc(C3(C4CCCC4)SCCS3)cc1OC2(C)C (centres unmarked) [Compound 24] | Not satisfied
* CC1=CCC2C(C1)c1c(O)cc(C3(C4CCCCCC4)SCCS3)cc1OC2(C)C (centres unmarked) [Compound 26] | Not satisfied
* CC1=CCC2C(C1)c1c(O)cc(C(C)(C)c3ccc(Cl)cc3)cc1OC2(C)C (centres unmarked) [Compound 52] | Not satisfied

-- ask Determine whether measured pKi meets or exceeds 9 for CC1=CCC2C(C1)c1c(O)cc(C(C)(C)C3CCCCCC3)cc1OC2(C)C (centres unmarked) [Compound 29]
-- reply Satisfied

-- ask Determine whether measured pKi meets or exceeds 9 for CC1=CCC2C(C1)c1c(O)cc(C(C)(C)c3ccc(F)cc3)cc1OC2(C)C (centres unmarked) [Compound 54]
-- reply Not satisfied

-- ask Determine whether measured pKi meets or exceeds 9 for CC1=CCC2C(C1)c1c(O)cc(C(C)(C)c3cccs3)cc1OC2(C)C (centres unmarked) [Compound 55]
-- reply Satisfied

###

- Tgt: human CB2 receptor (Homo sapiens, UniProt P34972)
- Construct: purchased Perkin-Elmer Life Sciences, Inc. Lot #1930
- Protocol text: CB2 receptor binding assay, displacement of [3H]CP 55,940
Measure: Ki (nM)
// note: answer is a bare numeric in nM

* CCCCC1(c2cc(O)c3c(c2)OC(C)(C)C2CC=C(C)CC32)SCCS1 (stereo not shown) [Compound 23] | 0.58
* CC1=CCC2C(C1)c1c(O)cc(C(C)(C)c3cccc(Cl)c3)cc1OC2(C)C (stereo not shown) [Compound 53] | 1.68
* CC1=CCC2C(C1)c1c(O)cc(C(C)(C)c3ccc(C)cc3)cc1OC2(C)C (stereo not shown) [Compound 50] | 0.88

The record that follows has no Ki shown yet.
// returns Ki for CC1=CCC2C(C1)c1c(O)cc(C(C)(C)c3cccc(C)c3)cc1OC2(C)C (stereo not shown) [Compound 51] with human CB2 receptor (Homo sapiens, UniProt P34972); value = 1.13

###

- Tgt: human CB1 receptor (Homo sapiens, UniProt P21554)
- Construct: purchased Perkin-Elmer Life Sciences, Inc. Lot #1929; host or cells: HEK293 (HEK293 EBNA according to b236 for compounds 33-36)
- Protocol text: biochemical
- Assay type: binding
- Assay conditions: read-out: CB1 Ki
Measure: Ki (nM)
// note: answer is a bare numeric in nM

Please fill in: Ki reported for CC1=CCC2C(C1)c1c(O)cc(C(C)(C)C3CCCC3)cc1OC2(C)C (stereo not shown) [Compound 27] = 0.34

###

# Ki per record follows
- Tgt: human CB1 receptor (Homo sapiens, UniProt P21554)
- Construct: purchased Perkin-Elmer Life Sciences, Inc. Lot #1929; host or cells: HEK293 (HEK293 EBNA according to b236 for compounds 33-36)
- Protocol text: biochemical
- Type: binding
- Assay conditions: Table 8; SEM in parentheses, n≧2 in triplicate; read-out: CB1 Ki
The answer consists of two parts: a number and, after it, its unit.

Please fill in: Ki reported for CC1=CCC2C(C1)c1c(O)cc(C(C)(C)c3ccc(Cl)cc3)cc1OC2(C)C (centres unmarked) = 76.1 nM

Please fill in: Ki reported for CC1=CCC2C(C1)c1c(O)cc(C(C)(C)c3ccc(F)cc3)cc1OC2(C)C (centres unmarked) = 2.8 nM

###

# Ratio CB1/CB2 per record follows
- Tgt: human CB1 receptor (Homo sapiens)
- Construct: purchased Perkin-Elmer Life Sciences, Inc. Lot #1929; host or cells: HEK293 (HEK293 EBNA according to b236 for compounds 33-36)
- Protocol text: biochemical
- Type: binding
I only need the number, thanks.

• CC1=CCC2C(C1)c1c(O)cc(C(C)(C)c3ccc(F)cc3)cc1OC2(C)C (stereo not shown) = 0.79
• CC1=CC[C@@H]2[C@@H](C1)c1c(O)cc(C(=O)c3ccccc3)cc1OC2(C)C = 12.6
• CC1=CCC2C(C1)c1c(O)cc(C(C)(C)c3cccs3)cc1OC2(C)C (stereo not shown) = 4.00

The record that follows has no Ratio CB1/CB2 shown yet.
Please fill in: Ratio CB1/CB2 reported for CC1=CCC2C(C1)c1c(O)cc(C3(C4CCCCC4)SCCS3)cc1OC2(C)C (stereo not shown) = 1.77

###

# Ratio CB1/CB2 per record follows
- Tgt: human CB1 receptor (Homo sapiens)
- Construct: purchased Perkin-Elmer Life Sciences, Inc. Lot #1929; host or cells: HEK293 (HEK293 EBNA according to b236 for compounds 33-36)
- Protocol text: biochemical
- Type: binding
- Assay conditions: Table 1; affinity ratio of Ki values
I only need the number, thanks.

Known results for compounds:
- CC1=CCC2C(C1)c1c(O)cc(C(C)(C)C3CCCC3)cc1OC2(C)C (stereo not drawn) [Compound 27]: 0.84
- CCCCC1(c2cc(O)c3c(c2)OC(C)(C)C2CC=C(C)CC32)SCCS1 (stereo not drawn) [Compound 23]: 1.47

The record that follows has no Ratio CB1/CB2 shown yet.
Please fill in: Ratio CB1/CB2 reported for CC1=CCC2C(C1)c1c(O)cc(C3(C4CCCC4)SCCS3)cc1OC2(C)C (stereo not drawn) [Compound 24] = 3.46

This collection of values is drawn from patent US7169942B2.
